Data provenance: ChEMBL document CHEMBL2417485

- Target: Epidermal growth factor receptor (Homo sapiens, UniProt P00533)
- Sequence (P00533 whole entry): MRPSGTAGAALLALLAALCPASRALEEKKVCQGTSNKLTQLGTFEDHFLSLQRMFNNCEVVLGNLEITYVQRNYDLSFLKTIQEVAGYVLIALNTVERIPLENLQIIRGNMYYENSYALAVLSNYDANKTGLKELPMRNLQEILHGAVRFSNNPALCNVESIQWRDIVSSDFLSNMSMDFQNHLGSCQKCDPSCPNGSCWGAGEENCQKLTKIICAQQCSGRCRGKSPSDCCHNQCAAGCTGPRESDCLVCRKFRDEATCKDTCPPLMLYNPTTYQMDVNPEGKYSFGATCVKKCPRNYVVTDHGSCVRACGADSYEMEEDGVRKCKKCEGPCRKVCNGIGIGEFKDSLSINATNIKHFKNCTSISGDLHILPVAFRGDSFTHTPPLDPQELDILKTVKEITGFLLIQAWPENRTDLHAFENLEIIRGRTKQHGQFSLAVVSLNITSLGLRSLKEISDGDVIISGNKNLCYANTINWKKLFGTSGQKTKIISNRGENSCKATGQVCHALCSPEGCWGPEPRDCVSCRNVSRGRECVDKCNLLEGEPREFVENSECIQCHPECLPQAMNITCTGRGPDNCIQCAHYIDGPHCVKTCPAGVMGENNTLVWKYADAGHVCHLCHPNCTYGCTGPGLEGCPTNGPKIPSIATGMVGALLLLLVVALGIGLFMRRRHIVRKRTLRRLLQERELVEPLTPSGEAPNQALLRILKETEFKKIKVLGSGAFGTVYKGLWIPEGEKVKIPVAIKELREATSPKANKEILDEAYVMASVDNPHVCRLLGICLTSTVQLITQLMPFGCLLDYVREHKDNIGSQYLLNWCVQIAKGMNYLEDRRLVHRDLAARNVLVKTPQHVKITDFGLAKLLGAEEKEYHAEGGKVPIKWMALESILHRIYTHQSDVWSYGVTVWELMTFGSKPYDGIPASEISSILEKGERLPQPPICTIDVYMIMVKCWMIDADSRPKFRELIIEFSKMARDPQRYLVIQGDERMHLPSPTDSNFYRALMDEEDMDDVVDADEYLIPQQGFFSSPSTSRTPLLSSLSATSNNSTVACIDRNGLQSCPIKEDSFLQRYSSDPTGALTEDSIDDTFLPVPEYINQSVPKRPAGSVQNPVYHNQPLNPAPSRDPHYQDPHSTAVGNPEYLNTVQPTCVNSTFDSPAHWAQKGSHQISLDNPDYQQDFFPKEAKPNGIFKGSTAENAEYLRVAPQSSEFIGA
Outcome measure: IC50
Answer shape: numeric part, then the unit.

Item Cl.c1ccc(-c2cccc(Nc3ncnc4cc5c(cc34)OCCCO5)c2)cc1 ; assay system Epidermal growth factor receptor (Homo sapiens, UniProt P00533); IC50 reported as 27 nM

###

- Tested on: HT-29
- Measurement protocol: Antiproliferative activity against human HT-29 cells after 72 hrs by MTT assay
- Type: functional, cell-based
- Conditions: HT-29, 72 h
# pIC50 values compiled below
Lab note: report pIC50 as minus log10 of the concentration in molar units, number only.

Check out these entries, answers already filled in.
Smiles structure: Cl.c1ccc(-c2cccc(Nc3ncnc4cc5c(cc34)OCCCO5)c2)cc1
Target: HT-29
Assay result: 6.15
--
Smiles structure: Cl.c1ccc(-c2cccc(Nc3ncnc4cc5c(cc34)OCO5)c2)cc1
Target: HT-29
Assay result: 6.02

Would you kindly look at the next entry?
pIC50 recorded for this molecule, Cl.c1ccc(-c2cccc(Nc3ncnc4cc5c(cc34)OCCO5)c2)cc1 , is 6.17
